These measurements were taken from patent US7351389B2.

# TEST_SUMMARY: T1 relaxivity of gadolinium complexes (IBM Minispec spin analyzer)
# Assay type: physicochemical
# TEST_CONDITIONS: Gd(L) complex; 20 MHz, 39±1° C.; aqueous solutions, 0.1-5 mM Gd
QUANTITY: T1 Relaxivity (mM⁻¹ s⁻¹)
Output spec: scalar in mM⁻¹ s⁻¹, unitless text.

Reference set, count: 3
COMPOUND	QUANTITY	READOUT_UNITS	RECORDED_MEASUREMENT
O=C(O)CN1CCN(CC(=O)O)CCN(CC(=O)O)CCN(CC(=O)O)CC1 [DOTA, reference compound]	T1 Relaxivity	mM⁻¹ s⁻¹	3.4
O=C(O)CN(CCN(CC(=O)O)C(=O)NCC(O)CO)CCN(CC(=O)O)C(=O)NCC(O)CO (stereo not shown) (Gd complex, metal not drawn) [DTPA-HA, reference compound]	T1 Relaxivity	mM⁻¹ s⁻¹	4.4
O=C(O)CN1CCN(CC(=O)O)CCN(CC(=O)Nc2cc(C(=O)NC(CO)CO)cc(C(=O)NC(CO)CO)c2)CCN(CC(=O)O)CC1	T1 Relaxivity	mM⁻¹ s⁻¹	5.4

Next, consider the following compound.
## Task What value of T1 Relaxivity has been recorded for this entry: O=C(O)CN(CCN(CC(=O)O)CC(=O)O)CCN(CC(=O)O)CC(=O)O (Gd complex, metal not drawn) [DTPA, diethylenetriaminepentaacetic acid, reference compound]
## Result 3.7
